Listed compounds paired with reported B-score of Tl+ flux slope (higher = more flux/activation; lower = inhibition)
target: Solute carrier family 12 member 5 (Homo sapiens); test: modulation of human KCC2 ion transport – cell-based, HEK293 KCC2, FluoZin-2 fluorescence, MLSMR, primary screen (AID 1456); conditions: KCC2 cells, thallium flux FluoZin-2 fluorescence; at 10 µM;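 further: slope of fluorescence scaled to starting intensity during 10 to 20 s after thallium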
Hit rate of the full screen: of about 190,000 compounds, about 4,100 (2.2%) were called active. Only a selection was taken, and actives are over-represented in it overall.
VALUE KIND: B-score of Tl+ flux slope (higher = more flux/activation; lower = inhibition)

>>> print(df.to_string())
                                   compound                            assayed_target  value_measured
0  CCC1(C)CC(CCNCc2ccc(N(C)C)cc2)(c2ccc(F)cc2)CCO1 (configuration not stated)  Solute carrier family 12 member 5 (Homo sapiens)            1.55
1  O=C(CSC1c2ccccc2-c2ccccc21)N/N=C/c1ccccc1  Solute carrier family 12 member 5 (Homo sapiens)            2.57
2  CSc1ccc(C(=O)C2CCCN(Cc3ccn[nH]3)C2)cc1 (configuration not stated)  Solute carrier family 12 member 5 (Homo sapiens)           0.628
3  Cc1ccc(CN2CCCC(C(=O)c3ccc4c(c3)OCO4)C2)cc1C (configuration not stated)  Solute carrier family 12 member 5 (Homo sapiens)          -0.421
4  c1cc2c(cc1[C@H]1OC[C@H]3[C@@H]1CO[C@@H]3c1ccc3c(c1)OCO3)OCO2  Solute carrier family 12 member 5 (Homo sapiens)           0.711
5  COc1cc(-n2c(=S)[nH]c3ccc(C)cc3c2=O)c(Cl)cc1Cl  Solute carrier family 12 member 5 (Homo sapiens)            69.6
6            CNC(=O)O/N=C(\N)Cc1csc2ccccc12  Solute carrier family 12 member 5 (Homo sapiens)           0.111
